FYI, the data here is from patent US11141452B2.

Molecular target: DOR (Mus musculus, UniProt P32300)
Construct: Male ICR mice under CO2 anesthesia were sacrificed by cervical dislocation and the vasa differentia removed; from tissue; host or cells: mouse vas deferens (ICR mice)
Sequence (P32300 whole entry): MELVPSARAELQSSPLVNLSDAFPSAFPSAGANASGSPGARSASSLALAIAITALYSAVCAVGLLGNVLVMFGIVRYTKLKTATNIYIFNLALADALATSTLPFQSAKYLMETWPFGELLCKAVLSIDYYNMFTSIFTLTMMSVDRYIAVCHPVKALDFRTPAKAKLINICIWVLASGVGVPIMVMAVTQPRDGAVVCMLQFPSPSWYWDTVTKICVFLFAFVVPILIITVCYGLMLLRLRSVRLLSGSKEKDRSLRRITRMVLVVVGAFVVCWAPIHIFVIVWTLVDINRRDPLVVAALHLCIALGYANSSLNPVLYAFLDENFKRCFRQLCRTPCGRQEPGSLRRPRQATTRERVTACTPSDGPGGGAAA
Assay: Mouse isolated vas deferens (MVD) functional assay
Format: cell-based
Non-standard residues stand in square brackets, D forms with d. Residues, ends and D or L forms follow the SMILES beside them. *: point of attachment. NH(3,5-(CF3)2-benzyl) = FC(F)(F)c1cc(CN*)cc(C(F)(F)F)c1; NMeF = CN[C@@H](Cc1ccccc1)C(=O)O
molecules and their reported higher agonist activity at DOR compared to MOR (functional assays)
observable: higher agonist activity at DOR compared to MOR (functional assays) (times)

{"columns": ["molecule", "recorded.result"],
 "data": [
  ["CC(C)C[C@H](NC(=O)[C@@H]1CCCN1C(=O)Cc1ccc(CNC(=O)[C@H](Cc2ccccc2)N(C)C(=O)CNC(=O)[C@@H](C)NC(=O)[C@@H](N)Cc2ccc(O)cc2)cc1)C(=O)N[C@@H](Cc1c[nH]c2ccccc12)C(=O)NCc1cc(C(F)(F)F)cc(C(F)(F)F)c1", 15],
  ["CC(C)C[C@H](NC(=O)[C@@H]1CCCN1C(=O)[C@H](Cc1ccc(O)cc1)NC(=O)CNC(=O)[C@H](Cc1ccccc1)NC(=O)[C@@H](C)NC(=O)[C@@H](N)Cc1ccc(O)cc1)C(=O)N[C@@H](Cc1c[nH]c2ccccc12)C(=O)NCc1cc(C(F)(F)F)cc(C(F)(F)F)c1 [AKG114] (H-Y[dA]FGYPLW-{NH(3,5-(CF3)2-benzyl)})", 4],
  ["Cc1cc(O)cc(C)c1C[C@H](N)C(=O)N[C@H](C)C(=O)NCC(=O)N[C@@H](Cc1ccccc1)C(=O)N1CCC[C@H]1C(=O)N[C@@H](CC(C)C)C(=O)N[C@@H](Cc1c[nH]c2ccccc12)C(=O)NCc1cc(C(F)(F)F)cc(C(F)(F)F)c1", 26],
  ["CC(C)C[C@H](NC(=O)[C@@H]1CCCN1C(=O)[C@H](CO)NC(=O)[C@H](Cc1ccccc1)N(C)C(=O)CNC(=O)[C@@H](C)NC(=O)[C@@H](N)Cc1ccc(O)cc1)C(=O)N[C@@H](Cc1c[nH]c2ccccc12)C(=O)NCc1cc(C(F)(F)F)cc(C(F)(F)F)c1 [AKG126] (H-Y[dA]G[NMeF]SPLW-{NH(3,5-(CF3)2-benzyl)})", 9],
  ["CC(C)C[C@H](NC(=O)[C@@H]1CCCN1C(=O)c1ccc(CNC(=O)[C@H](Cc2ccccc2)N(C)C(=O)CNC(=O)[C@@H](C)NC(=O)[C@@H](N)Cc2ccc(O)cc2)cc1)C(=O)N[C@@H](Cc1c[nH]c2ccccc12)C(=O)NCc1cc(C(F)(F)F)cc(C(F)(F)F)c1", 10],
  ["Cc1cc(O)cc(C)c1C[C@H](N)C(=O)N[C@H](C)C(=O)NCC(=O)N[C@@H](Cc1ccc(F)cc1)C(=O)N1CCC[C@H]1C(=O)N[C@@H](CC(C)C)C(=O)N[C@@H](Cc1c[nH]c2ccccc12)C(=O)NCc1cc(C(F)(F)F)cc(C(F)(F)F)c1", 21],
  ["CC(C)C[C@H](NC(=O)[C@@H]1CCCN1C(=O)[C@H](Cc1ccc(F)cc1)NC(=O)CNC(=O)[C@@H](C)NC(=O)[C@@H](N)Cc1ccc(O)cc1)C(=O)N[C@@H](Cc1c[nH]c2ccccc12)C(=O)NCc1cc(C(F)(F)F)cc(C(F)(F)F)c1", 5]
]}
